Parameter: cell viability (log2). Scope: all listed entries.
- Tested on: A673/TR/shEF
- method: cell viability (LOESS-normalised, relative to median of negative controls) (log2 ratio); higher = more viable cells (less compound effect), active = hit call of the paper (over 3 MAD below the median)
- reported.conditions: 0.25 µM; library screen: screen2; EWS-FLI1 expression: high (no doxycycline); treatment time: 72 h
The whole screen tested about 3,200 compounds, of which about 300 (9.4%) showed activity. The sample holds actives, similar compounds and a random draw of the others, so the mix is not that of the screen.
The answer should be written as a number, with no unit following it.

Exam item: Need cell viability (log2) of CNC(=O)c1cc2c(cn1)[nH]c1ccccc12 , thanks.
Marked response: 0.143

====

- Test system: A673/TR/shEF
- method: cell viability (LOESS-normalised, relative to median of negative controls) (log2 ratio); higher = more viable cells (less compound effect), active = hit call of the paper (over 3 MAD below the median)
- reported.conditions: 8.3 µM; library screen: screen3; EWS-FLI1 expression: high (no doxycycline); treatment time: 72 h
The campaign covered roughly 3,200 compounds. About 300 (9.4%) showed activity. This excerpt belongs to a sample that is enriched for actives.
recorded.metric: cell viability (log2)

- compound: "Nc1ccc(S(=O)(=O)Nc2ncccn2)cc1"
  cell viability (log2): "0.0532 (inactive)"
- compound: "Clc1ccc(COC(Cn2ccnc2)c2ccc(Cl)cc2Cl)cc1 (stereo unspecified)"
  cell viability (log2): "-0.0802 (inactive)"
- compound: "C=CC(=O)N1CCC[C@@H](n2nc(-c3ccc(Oc4ccccc4)cc3)c3c(N)ncnc32)C1"
  cell viability (log2): "-0.0558 (inactive)"

Exam item: Request the reported cell viability (log2) associated with COc1ncc(-c2ccc3nccc(-c4ccnnc4)c3c2)cc1NS(=O)(=O)c1ccc(F)cc1F
Marked response: -3.29 (active)

Exam item: I would be grateful if you could share the reported cell viability (log2) for CCCCCCCCCC(=O)N[C@@H](Cc1c[nH]c2ccccc12)C(=O)N[C@@H](CC(N)=O)C(=O)N[C@@H](CC(=O)O)C(=O)NC1C(=O)NCC(=O)N[C@@H](CCCN)C(=O)N[C@@H](CC(=O)O)C(=O)N[C@H](C)C(=O)N[C@@H](CC(=O)O)C(=O)NCC(=O)N[C@H](CO)C(=O)N[C@@H](C(C)CC(=O)O)C(=O)N[C@@H](CC(=O)c2ccccc2N)C(=O)OC1C (stereo partly specified) .
Marked response: 0.0568 (inactive)

Exam item: Could you tell me which cell viability (log2) is on file for COc1ccc(-c2ccc3c(N4CCOC[C@@H]4C)nc(N4CCOC[C@@H]4C)nc3n2)cc1CO ?
Marked response: -1.89 (active)

Exam item: Entry Cc1ccc(C(=O)Nc2ccc(CN3CCN(C)CC3)c(C(F)(F)F)c2)cc1C#Cc1cnc2cccnn12 : reported cell viability (log2) = ?
Marked response: -0.655 (active)

Exam item: State the recorded cell viability (log2) for this entry: CC(C)(O)[C@@H]1CC[C@](C)([C@H]2[C@@H](O)C[C@@]3(C)[C@@H]4C[C@H](O[C@@H]5O[C@H](CO)[C@@H](O)[C@H](O)[C@H]5O)[C@H]5C(C)(C)[C@@H](O[C@@H]6OC[C@@H](O)[C@H](O)[C@H]6O)CC[C@@]56C[C@@]46CC[C@]23C)O1
Marked response: 0.0806 (inactive)
